Target: cloned human or rodent CNS receptors, channels, and transporters (PDSP panel) (Homo sapiens, UniProt P08172)
Construct: expressed in transfected cells
Sequence (P08172 whole entry): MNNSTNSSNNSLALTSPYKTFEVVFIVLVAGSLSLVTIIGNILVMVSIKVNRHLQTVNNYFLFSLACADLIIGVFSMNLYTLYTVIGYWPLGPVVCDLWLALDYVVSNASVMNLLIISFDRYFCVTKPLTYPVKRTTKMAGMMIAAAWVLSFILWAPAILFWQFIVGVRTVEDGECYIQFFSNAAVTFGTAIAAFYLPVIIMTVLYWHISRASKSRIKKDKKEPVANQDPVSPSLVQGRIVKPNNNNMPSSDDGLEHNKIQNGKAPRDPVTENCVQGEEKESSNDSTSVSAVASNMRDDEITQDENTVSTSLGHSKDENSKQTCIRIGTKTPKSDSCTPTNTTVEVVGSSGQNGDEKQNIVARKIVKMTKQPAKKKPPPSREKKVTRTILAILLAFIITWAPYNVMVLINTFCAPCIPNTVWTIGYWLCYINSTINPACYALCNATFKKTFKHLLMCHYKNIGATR
Assay: PDSP GPCR panel primary binding assays at 10 μM
Conditions: M2; primary assay, replicate 2
measured parameter: Inhibition 2
Answer format reminder: number followed by unit.

// below: answered compounds
[
  {
    "compound": "CCC(=O)N1CCC(NC(=O)Nc2ccc(OC(F)(F)F)cc2)CC1 [UNC10302681A, TPPU]",
    "result": "-20.61%"
  },
  {
    "compound": "O=C(NC1CC1)C(=O)C(Cc1ccccc1)NC(=O)[C@H]1CCC(=O)N1Cc1ccccc1 (some centres unmarked) [UNC10302676A, ABT-957 (Alicapistat)]",
    "result": "-5.38%"
  },
  {
    "compound": "CC(=O)N1CCC(NC(=O)NC23CC4CC(CC(C4)C2)C3)CC1 [UNC10302683A, AR9281]",
    "result": "-6.36%"
  },
  {
    "compound": "O=c1oc2ccccc2cc1-c1cn2cc(Cc3ccc(F)cc3)sc2n1 [UNC10302680A, iMDK]",
    "result": "-5.38%"
  }
]

Continue with the compound presented below.
Incoming: State its Inhibition 2 for this compound: CNc1nc(C)nc(N[C@H]2CCC[C@@H](C(=O)NCc3ccc(C#N)cc3C(F)(F)F)C2)n1 [UNC10302679A, GSK2256294A]
Outgoing: -23.07%

----------
System: cloned human or rodent CNS receptors, channels, and transporters (PDSP panel)
Assay: PDSP GPCR panel primary binding assays at 10 μM
Conditions: Receptor Sigma 1; primary assay, 10 μM
# Inhibition 4 per entry
Report as a plain number; the unit % is understood.

[
  {
    "compound": "c1cn2cc(-c3ccc4cn[nH]c4c3)nc(Nc3ccc(N4CCOCC4)cc3)c2n1 [UNC10302678A, Entospletinib (GS-9973)]",
    "measured parameter": "Inhibition 4",
    "unit symbol": "%",
    "numeric result": -3.67
  }
]

Incoming: GET Inhibition 4 where system = cloned human or rodent CNS receptors, channels, and transporters (PDSP panel) and item = Cl.NC(=O)c1cnc(N[C@@H]2CCCC[C@@H]2N)nc1Nc1cccc(-n2nccn2)c1 [UNC10302682A, P505-15 (PRT06207 HCl)]
Outgoing: 27.31

Incoming: Answer with Inhibition 4 of O=c1oc2ccccc2cc1-c1cn2cc(Cc3ccc(F)cc3)sc2n1 [UNC10302680A, iMDK] measured for cloned human or rodent CNS receptors, channels, and transporters (PDSP panel).
Outgoing: 5.36

Incoming: Please indicate recorded Inhibition 4 of CCCCNc1ncc2c(-c3ccc(CN4CCN(C)CC4)cc3)cn([C@H]3CC[C@H](O)CC3)c2n1 [UNC2025C, UNC2025] measured with cloned human or rodent CNS receptors, channels, and transporters (PDSP panel).
Outgoing: 46.38

----------
Test system: cloned human or rodent CNS receptors, channels, and transporters (PDSP panel)
Test: PDSP GPCR panel primary binding assays at 10 μM
Conditions: H3; primary assay, replicate 2
measured parameter: Inhibition 2
Provide a numeric answer, followed by its unit.

[
  {
    "compound": "O=C(NC1CC1)C(=O)C(Cc1ccccc1)NC(=O)[C@H]1CCC(=O)N1Cc1ccccc1 (some centres unmarked) [UNC10302676A, ABT-957 (Alicapistat)]",
    "Inhibition 2": "-2.99%"
  }
]

Incoming: Provide the reported Inhibition 2 (system: cloned human or rodent CNS receptors, channels, and transporters (PDSP panel)) for CC(=O)N1CCC(NC(=O)NC23CC4CC(CC(C4)C2)C3)CC1 [UNC10302683A, AR9281]
Outgoing: -10.86%

Incoming: Please tell me the measured Inhibition 2 for CCC(=O)N1CCC(NC(=O)Nc2ccc(OC(F)(F)F)cc2)CC1 [UNC10302681A, TPPU] ; system: cloned human or rodent CNS receptors, channels, and transporters (PDSP panel).
Outgoing: 25.87%

Incoming: // output Inhibition 2; input CNc1nc(C)nc(N[C@H]2CCC[C@@H](C(=O)NCc3ccc(C#N)cc3C(F)(F)F)C2)n1 [UNC10302679A, GSK2256294A] ; system cloned human or rodent CNS receptors, channels, and transporters (PDSP panel)
Outgoing: 5.17%

Incoming: Write down the reported Inhibition 2 (system: cloned human or rodent CNS receptors, channels, and transporters (PDSP panel)) of O=c1oc2ccccc2cc1-c1cn2cc(Cc3ccc(F)cc3)sc2n1 [UNC10302680A, iMDK]
Outgoing: 32.28%
